# TARGET ENTITY: tankyrase 1 (Homo sapiens, UniProt O95271)
# Construct: purchased Trevigen 4700-096-K
# Sequence (O95271 whole entry): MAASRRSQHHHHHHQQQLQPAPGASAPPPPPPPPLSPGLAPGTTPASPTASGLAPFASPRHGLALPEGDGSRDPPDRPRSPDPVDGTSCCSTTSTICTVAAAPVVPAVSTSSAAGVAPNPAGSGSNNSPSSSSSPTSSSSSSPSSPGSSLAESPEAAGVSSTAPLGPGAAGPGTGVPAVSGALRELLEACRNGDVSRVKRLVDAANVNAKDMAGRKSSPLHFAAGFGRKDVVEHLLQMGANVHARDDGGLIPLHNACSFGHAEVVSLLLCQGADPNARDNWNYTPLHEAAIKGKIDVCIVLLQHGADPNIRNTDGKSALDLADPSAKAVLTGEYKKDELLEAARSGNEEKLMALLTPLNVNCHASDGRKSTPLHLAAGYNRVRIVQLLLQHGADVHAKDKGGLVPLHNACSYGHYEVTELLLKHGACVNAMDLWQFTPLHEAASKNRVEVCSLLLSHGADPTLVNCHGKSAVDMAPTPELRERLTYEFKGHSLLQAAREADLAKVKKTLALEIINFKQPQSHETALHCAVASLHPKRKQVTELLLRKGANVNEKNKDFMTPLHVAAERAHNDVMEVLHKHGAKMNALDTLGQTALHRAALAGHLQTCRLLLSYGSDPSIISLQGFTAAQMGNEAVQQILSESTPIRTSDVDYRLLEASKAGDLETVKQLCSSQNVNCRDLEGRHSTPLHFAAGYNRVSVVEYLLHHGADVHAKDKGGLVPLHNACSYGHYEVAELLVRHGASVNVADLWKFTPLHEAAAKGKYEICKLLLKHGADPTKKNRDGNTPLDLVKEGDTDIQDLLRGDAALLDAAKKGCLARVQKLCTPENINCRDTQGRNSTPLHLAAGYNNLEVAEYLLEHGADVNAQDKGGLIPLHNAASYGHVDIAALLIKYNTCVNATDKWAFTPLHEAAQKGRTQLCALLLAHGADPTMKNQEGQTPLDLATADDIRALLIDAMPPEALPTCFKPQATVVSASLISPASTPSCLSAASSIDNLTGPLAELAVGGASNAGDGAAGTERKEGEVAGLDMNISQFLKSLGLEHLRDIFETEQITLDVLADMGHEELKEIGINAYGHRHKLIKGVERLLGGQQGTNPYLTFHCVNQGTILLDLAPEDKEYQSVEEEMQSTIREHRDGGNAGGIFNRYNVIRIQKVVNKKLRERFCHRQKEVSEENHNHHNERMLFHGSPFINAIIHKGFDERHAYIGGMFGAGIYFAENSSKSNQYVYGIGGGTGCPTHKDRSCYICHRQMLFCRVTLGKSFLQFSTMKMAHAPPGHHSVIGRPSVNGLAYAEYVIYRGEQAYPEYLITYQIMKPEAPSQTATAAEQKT
# TEST NAME: Analysis of activity of tankyrase 1 (Trevigen kit, ELISA absorbance at 450 nm)
# Format: biochemical
# ASSAY CONDITIONS: Trevigen kit Cat. No. 4700-096-K; reaction at rt for 30 min; read-out: TNKS1 (IC50)
MEASUREMENT NAME: pIC50
Numbers only, as −log10 of the molar value.

{"columns": ["COMPOUND", "pIC50"],
 "data": [
  ["Cc1ncc2c(=O)[nH]c(N3CCN(c4c(F)cc(OCCN5CCOCC5)cc4F)CC3)nn12", 7.49],
  ["Cc1ncc2c(=O)[nH]c(N3CCN(c4c(F)cc(OCCN5CCC(O)C5)cc4F)CC3)nn12 (stereo not shown)", 6.99],
  ["Cc1ncc2c(=O)[nH]c(N3CCN(c4c(F)cc(OCCN5CCCC5)cc4F)CC3)nn12", 7.03]
]}

# context switch: different compound, same pIC50
Q. Name the reported pIC50 value associated with the compound COCCN(C)Cc1cc(F)c(N2CCN(c3nn4c(C)ncc4c(=O)[nH]3)CC2)c(F)c1
A. 6.99
